Source: the supplement of paper PMC11451515

# System: SEM cells
# measurement-description: cell viability relative to DMSO control; higher = less cytotoxic
# test-context: RPMI 5 mM glucose + 10% dialyzed FBS; 48 h; 0.569 µM
# cell viability per record follows
Please reply with the bare figure in % and do not write the unit itself.

// below: answered compounds
CC(C)(O)CNc1nc(Nc2ccnc(C(F)(F)F)c2)nc(-c2cccc(C(F)(F)F)n2)n1: 122
O=C(C1CCCCC1)N1CC(=O)N2CCc3ccccc3C2C1 (stereo not drawn): 103
CCOc1ccccc1OCCNC(C)Cc1ccc(OC)c([S+](N)(=O)[O-])c1 (stereo not drawn): 130
O=C(NC1CC1)c1cccc(-c2ccc3c(NC(=O)C4CC4)n[nH]c3c2)c1: 102
C[C@H]1CCC/C=C/C2C[C@H](O)C[C@H]2[C@H](O)/C=C/C(=O)O1 (stereo partly drawn): 3.96

Tell me measured cell viability for "NC\1=N\C(=O)N(\C=N1)[C@H]2C[C@H](O)[C@@H](CO)O2" please.
67.5

In one line, give reported cell viability of the entry COc1ccc(-c2nc3cc(C4=NNC(=O)CC4C)ccc3[nH]2)cc1 (stereo not drawn) .
107

For the compound "N=C(N)c1ccc(OCCCCCOc2ccc(C(=N)N)cc2)cc1" , give its reported cell viability.
105
